Test system: SK-MEL-28 melanoma
Test Details: NCI tumour cell line growth inhibition, 48 h; in the data active = GI50 below about 0.43 µM; inactive = the rest
Labels: y = active, n = inactive

- O=C1OCC2=C1C(c1cccc(F)c1)c1cc3c(cc1N2CCO)OCCO3 (centres undefined): n
- Cc1cc(C)cc(Nc2nccc(-c3c(-c4ccc(F)cc4)ncn3C3CCNCC3)n2)c1: n
- C/C1=C\CC[C@@](C)(O)[C@H]2C[C@H](CC/C(C)=C/CC1)C1(CC1)C(=O)O2: n
- O=C(Cc1ccccc1)Nc1nnc(CCSCCc2nnc(NC(=O)Cc3ccccc3)s2)s1: n
- Cn1cc(-c2csc(-c3cn(CCN4CCOCC4)c4ccc(F)cc34)n2)c2cccnc21: n
- COc1ccc2nc(-c3ccccc3)cc(Nc3ccc(/C(C)=N/O)cc3)c2c1: n
- Cc1ccc(C(=O)Nc2ccc(CN3CCN(C)CC3)c(C(F)(F)F)c2)cc1C#Cc1cncc2ncccc12: y
- O=S(=O)(NC(=S)Nc1ccccc1)c1ccc(N2N=C3c4ccccc4CC3C2c2ccc(Cl)cc2)cc1 (centres undefined): n
- CCOC(=O)Nc1nc2c(F)c(F)c(F)cc2s1: n

* * *

Listed below: TGI values for each entry.
Test system: IGROV1 ovarian
Test Details: NCI tumour cell line growth inhibition, 48 h
Result Type: TGI

- FC1CCN(C2(c3cccs3)CCCCC2)CC1: > 100 µM
- C[C@@H]1CN(Cc2ccc(/C=C/c3n[nH]c4ccc5nc(-c6cn[nH]c6C(F)(F)F)c6c(c5c34)CCCC6)cc2)C[C@H](C)O1: 10.7 µM
- CSc1nc2c(nc(N)n2C2OCC(O)C(O)C2O)c(=O)[nH]1 (stereo not given): > 100 µM
- CN(C)CCCNC(=O)c1cc(NC(=O)c2cc(NC(=O)c3cc(NC(=O)CCCn4ccc(CO)c4CO)cn3C)cn2C)cn1C: > 100 µM
- Cc1cc(C)cc(Nc2nccc(-c3c(-c4ccc(F)cc4)ncn3C3CCNCC3)n2)c1: 1.67 µM
- O=[N+]([O-])c1cccc2nc3ccccc3c(NCCC[N+]3([O-])CCCCC3)c12: 6.33 µM
- O=C1Nc2ccccc2C12CC(c1ccccc1)=NN2 (stereo not given): 75.9 µM
- COc1cc2c(cc1OCCCCC(=O)Nc1ccc(-c3nc4ccccc4s3)cc1)N=C[C@@H]1CCCN1C2=O: 2.27 µM
- O=C1C[C@H](c2ccccc2)C2(C(=O)c3ccccc3C2=O)[C@@H](c2ccccc2)C1: > 100 µM
- O=c1[nH]c(=O)n(C2CC(O)C(CO)O2)cc1NN=NCc1ccccc1 (stereo not given): > 100 µM
- CC(=O)NNC(=O)c1nn(-c2ccc(Cl)cc2)cc1OC(C)=O: > 100 µM
- Cc1ccc(S(=O)(=O)n2cc(-c3cnc(N)c(Br)n3)c3ccccc32)cc1: 5.71 µM
- Cc1cc(N(CCCNc2ccnc3cc(Cl)ccc23)Cc2cccs2)nc(Cl)n1: 18.9 µM
- C#CCOCn1cnc2ncnc(Cl)c21: > 100 µM
- CN(C)c1nc(N(C)C)nc(N(C)CN(C)c2nc(N(C)C)nc(N(C)C)n2)n1: > 100 µM
- N/C(=N\OC(=O)NC(Cl)=C(Cl)Cl)c1cc(C(F)(F)F)cc(C(F)(F)F)c1: 66 µM
- CCOC(=O)Nc1nc2c(F)c(F)c(F)cc2s1: > 100 µM
- Cn1c(=O)c(C(c2ccccc2)c2c(O)c3ccccc3n(C)c2=O)c(O)c2ccccc21: > 100 µM
- COC1=NN2C(OC)(c3ccccc3)c3c(-c4ccccc4)sc(-c4ccccc4)c3C2(c2ccccc2)S1 (stereo not given): > 100 µM
- Cc1ccc(NC(=O)c2cccc([N+](=O)[O-])c2O)c(C)c1: > 100 µM
